# Tested on: MS2 coat protein
# Procedure text: apparent KD of MS2 coat protein; designed switch direction (-1 OFF switch, 1 ON switch): -1; higher = weaker reporter binding
# Stated conditions: input ligand: FMN 200 uM
t means recorded apparent KD of MS2 coat protein is 50 nM or above; f means it is below 50 nM.

**Q:** Check this sequence for apparent KD of MS2 coat protein at or above 50 nM: CACCAUCGUGUAAGGAUAUCGAGGCUUAGCGGGUGUGAGAAGGUACAUGAGGAUCACCCAUGUUACGAUUUGCG [Eternabot (L1) Solution 77] (Eterna round: R97, puzzle: Brourd's mod of Exclusion 4)
**A:** f

**Q:** Query UUUAAUCGUGACAUGGGUGACAUGAGGAUCACCCAUGUCACAAGCUUUUUGCUCGUCUUAUAAUUAACCCAUGUCAC [LRO Sensor-off var1-11 mod of Stov1-13-A1 by Brourd] (Eterna round: R97, puzzle: Sensor, turn-off variant 1) next
**A:** f

**Q:** Query AGAAAUUCAAGAGGAUAUCACAUGAGGAUCACCCAUGUAUAGCGCGCUACGCUAGUCCUCGUAUUUGAGAAGGUUUGAUAAAAG [Mat - Exclusion NG 2 - Mod of JL - D77] (Eterna round: R96, puzzle: Exclusion NG 2) next
**A:** f

**Q:** Query GUCCUCAUGACAUGAGGAUCACCCAUGUAUUAUUUGUUAACUGAGGAUAUACUCUUAAUGUUUAUGUAGAAGGCAGAUUCGGUC [JR_ExcNG3_Sub019] (Eterna round: R96, puzzle: Exclusion NG 3) next
**A:** t

====

# System: MS2 coat protein
# Procedure text: apparent KD of MS2 coat protein; designed switch direction (-1 OFF switch, 1 ON switch): -1; higher = weaker reporter binding
# Stated conditions: input ligand: none
Provide the reported apparent KD of MS2 coat protein of each item.

**Q:** Short answer please: apparent KD of MS2 coat protein, MS2 coat protein, entry ACGCGAGUAGGAGGAUAUUCUGAGCGCGGGCCAGAAGAAGGCCUAGAUCGUGAACAUGAGGAUCACCCAUGUGGGAUGAUCUAA [Vevexeaus] (Eterna round: R96, puzzle: Exclusion NG 1)
**A:** 307 nM

**Q:** Query CCCAGUUAGGAAGGAUAUUGUACAUGAGGAUCACCCAUGUAAUAAAUGAGGAUCUCGGAUGUCUACAAGAAGGUCCGGAUAGGC [Ostracism 11 - Jieux - Exclusion NG 2] (Eterna round: R96, puzzle: Exclusion NG 2) next
**A:** 44.5 nM

**Q:** Query UUUCCCGUUCAGGCUGGAAACAUGAGGAUCACCCAUGUUCAAUCGGUUCUGUUAGCUGCUCGUCUUUUACACUUUCC [Eternabot (L1) Solution 39] (Eterna round: R97, puzzle: Sensor, turn-off variant 1) next
**A:** 20.3 nM

**Q:** Query GAUCAUGCAGGAUAUACAUAAACCAUGAAAACAUGGCUCAAACAUGAGGAUCACCCAUGUAGAAGGGCAUGAUC [Omei Ex2 A19] (Eterna round: R97, puzzle: Exclusion 2) next
**A:** 31.5 nM

**Q:** Query AAUGAGCGAGGAUAUGCAACUGUAUGACCUACGUGUGCCAGACAUGAGGAUCACCCAUGUAGAAGGUGCUUUCC [Israte] (Eterna round: R96, puzzle: Exclusion 2) next
**A:** 57 nM
